Quick reference for growth inhibition among some compounds
- Protocol Text: NCI Yeast Anticancer Drug Screen. Data for the mec2-1 strain (AID 157)
- Experimental Conditions: S. cerevisiae mec2-1 strain, at 50.0 µM, active compounds read high
This is part of a sample that, as a whole, favours compounds with a hit. Of some 79,000 tested, about 15% had one in any assay.
Unit % implied. Number only.

Answered examples (5):
1. N=C(c1ccc2ccccc2c1)c1ccccc1Cc1ccccc1 : -24.2
2. CC(=O)Nc1ccc[n+](CC(=O)c2ccc(F)cc2)c1 : 0.85
3. Cc1ccc(N=C=Nc2ccc(C)cc2)cc1 : 2.65
4. CCCC(P(=O)(c1ccccc1)c1ccccc1)[P+](CC)(c1ccccc1)c1ccccc1 (centres undefined) : 78.2
5. CC(=O)OCC1OC(n2c3c(cc(C#N)c2=S)CCCCC3)C(OC(C)=O)C(OC(C)=O)C1OC(C)=O (centres undefined) : -1.7

Record "O=C1c2ccccc2-c2nc3cc4ccccc4cc3nc21" , field growth inhibition: 15.6

Kindly note the recorded growth inhibition for CC1CC(C)OC(C)(Cc2ccccc2)O1 (centres undefined) , which is 20.4

Looking up CCOC1(COP(=O)(OCc2ccccc2)OCc2ccccc2)COC(COP(=O)(OCc2ccccc2)OCc2ccccc2)(OCC)CO1 (centres undefined) , I found its growth inhibition recorded as -25.6

growth inhibition reading for CCCCC1C2C(S(=O)(=O)c3ccccc3)=NOC2C=CN1C(C)=O (centres undefined) : -9

// recorded growth inhibition for "CCCCCCCCCCCC[Si](c1ccccc1)(c1ccccc1)c1ccccc1" : 6.2

====

- Protocol Text: NCI Yeast Anticancer Drug Screen. Data for the mlh1 rad18 strain (AID 175)
- Experimental Conditions: S. cerevisiae mlh1 rad18 strain growth inhibition; at 50.0 µM; active compounds read high
The panel holds about 79,000 compounds, 15% with a hit somewhere; the sample as a whole holds those more often.
Quick rule for you: growth inhibition at 20% or higher means 1, lower means -1.

1) COc1ccc2nc3c(Cl)cccc3c(Cl)c2c1 : 1

Reported growth inhibition at or above 20%? "COC(=O)Cc1cc(=O)c2cc(C)ccc2[nH]1"
-1

Hello, I need to know if CCCCCCCCN(c1ccc(C(=O)NC(CCC(=O)OCC)C(=O)OCC)cc1)S(=O)(=O)c1ccc(C)cc1 (stereo unspecified) has measured growth inhibition not below 20%. Thanks!
-1

Can "O=[N+]([O-])C(CO)(CO)c1ccccc1" be said to have growth inhibition at or above 20%?
-1

Tell me whether growth inhibition is at least 20% here: COC(OC)C1(c2ccccc2)NC(=O)N(Cc2ccccc2)C1=O (stereo unspecified)
-1

Does "Cc1cc(C(C)(C)C)cc(Cc2cc(C(C)(C)C)cc(Cc3cc(C(C)(C)C)cc(C)c3O)c2O)c1O" have a reported growth inhibition of at least 20%?
-1

====

- Protocol Text: NCI Yeast Anticancer Drug Screen. Data for the rad50 strain (AID 155);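 also: 0% = growth of vehicle-only cultures of the same strain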
- Experimental Conditions: S. cerevisiae rad50 strain growth inhibition; at 50.0 µM; active compounds read high
This is part of a sample that, as a whole, favours compounds with a hit. Of some 79,000 tested, about 15% had one in any assay.
Threshold rule: growth inhibition greater than or equal to 20% is fulfilled; below that, not fulfilled.

1) Oc1c(CN2CCN(c3ccccc3)CC2)cc(Br)c2cccnc12 : fulfilled

Does growth inhibition meet or surpass 20% for "COC(=O)CCc1cc(=O)oc2ccc3cc(CC(=O)OC)oc3c12" ?
not fulfilled

Assess whether reported growth inhibition for "C=CC(C)(C)c1c(OC(C)=O)cc2oc3c(OC(C)=O)c(OC(C)=O)cc(CC=C(C)C)c3c(=O)c2c1O" sits at 20% or higher.
fulfilled
